Measured on: SARM1 (50-724) (Homo sapiens, UniProt Q6SZW1)
Construct: Purified SARM1 (50-724) with a final concentration of 2 nM was pre-incubated with a test compound
Sequence (Q6SZW1 50-724): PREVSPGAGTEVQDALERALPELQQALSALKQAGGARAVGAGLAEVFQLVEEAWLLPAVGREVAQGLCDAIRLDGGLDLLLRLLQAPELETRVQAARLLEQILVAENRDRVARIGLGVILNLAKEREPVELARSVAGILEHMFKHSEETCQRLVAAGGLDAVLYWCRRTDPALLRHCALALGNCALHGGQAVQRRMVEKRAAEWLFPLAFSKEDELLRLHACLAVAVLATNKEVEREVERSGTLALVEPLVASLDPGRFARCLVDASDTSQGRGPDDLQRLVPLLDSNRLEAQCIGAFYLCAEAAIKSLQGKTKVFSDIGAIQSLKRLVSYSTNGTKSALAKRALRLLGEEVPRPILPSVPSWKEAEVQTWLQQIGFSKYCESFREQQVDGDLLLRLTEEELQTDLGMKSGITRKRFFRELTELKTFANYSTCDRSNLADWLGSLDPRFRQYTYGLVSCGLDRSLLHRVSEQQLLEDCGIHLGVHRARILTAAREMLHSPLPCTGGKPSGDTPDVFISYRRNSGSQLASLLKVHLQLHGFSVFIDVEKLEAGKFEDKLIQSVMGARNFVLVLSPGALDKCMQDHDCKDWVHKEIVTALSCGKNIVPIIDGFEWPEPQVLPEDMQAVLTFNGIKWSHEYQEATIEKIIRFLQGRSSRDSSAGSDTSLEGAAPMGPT
Assay details: SARM1 (50-724) enzymatic assay (LC-MS/MS)
Type: biochemical
Conditions used: Purified SARM1 (50-724) 2 nM, NMN as activator, NAD+ as substrate, 1 h at room temperature, read-out: IC50 (SARM1 inhibitory activity)
pIC50: −log10 of the molar value.
Metric: pIC50

Some compounds with recorded pIC50:
Compound: CC(c1cc(F)c2[nH]c(-c3nncn3-c3cnccc3C(F)(F)F)nc2c1)c1nccs1 (single isomer, unassigned)
pIC50: ≥ 7.00

Compound: CP(C)(=O)c1ccc(Cl)c(-n2cnnc2-c2nc3cc(C(F)(F)F)ccc3[nH]2)c1
pIC50: < 6.00

Compound: COc1ccc(-c2cccc(Cl)c2Cl)c(-c2nc3cc(C(F)(F)F)ccc3[nH]2)n1
pIC50: < 6.00

[Q] So what does the record say about pIC50 for CS(=O)(=O)Cc1nnc(-c2nc3c(F)c(C(F)(F)F)ccc3[nH]2)n1-c1cccc(F)c1Cl (racemic) ?
[A] ≥ 7.00

[Q] So what does the record say about pIC50 for `Cn1ccc(C(F)(F)F)c(-n2cnnc2-c2nc3cc(C(F)(F)F)ccc3[nH]2)c1=O` ?
[A] < 6.00

[Q] So what does the record say about pIC50 for `Cn1cc(OC(F)(F)F)c(-n2cnnc2-c2nc3cc(C4CC4)cc(F)c3[nH]2)cc1=O` ?
[A] ≥ 7.00

[Q] So what does the record say about pIC50 for `Cc1ccc2[nH]c(-c3ncnn3C3CCCC3)nc2c1` ?
[A] < 6.00

[Q] So what does the record say about pIC50 for `FC(F)(F)c1ccc2[nH]c(-c3nncn3-c3c(Cl)ccc4[nH]ncc34)nc2c1` ?
[A] ≥ 7.00

[Q] So what does the record say about pIC50 for `Cc1ccc2[nH]c(-c3nncn3-c3cccc(Cl)c3Cl)nc2c1` ?
[A] ≥ 7.00

[Q] So what does the record say about pIC50 for `Oc1cc(-c2ccccc2Cl)c(-c2nc3cc(C(F)(F)F)ccc3[nH]2)nn1` ?
[A] 6.30 to 7.00

[Q] So what does the record say about pIC50 for `Cn1cc(OC(F)(F)F)c(-n2cnnc2-c2nc3cc(C(F)(F)F)cc(F)c3[nH]2)cc1=O` ?
[A] ≥ 7.00

[Q] So what does the record say about pIC50 for `Clc1cccc(-n2cnnc2-c2nc3cc(-c4cscn4)ccc3[nH]2)c1Cl` ?
[A] ≥ 7.00

[Q] So what does the record say about pIC50 for `FC(F)c1ccncc1-n1cnnc1-c1nc2cc(C(F)(F)F)ccc2[nH]1` ?
[A] ≥ 7.00

* * *

Listing of recorded IC50 by entry.
Measured on: SARM1 (50-724) (Homo sapiens)

Some compounds with recorded IC50:
Compound: Fc1c(C2CC2)cc(F)c2[nH]c(-c3nncn3-c3cnccc3C(F)(F)F)nc12 [Compound 300]
Observed value: ≤ 100 nM

Compound: CCc1nnc(-c2nc3cc(C(F)(F)F)ccc3[nH]2)n1-c1cccc(Cl)c1Cl [Compound 145]
Observed value: ≤ 100 nM

Compound: Fc1cc(C(F)(F)c2ccncc2)cc2nc(-c3nncn3-c3cnccc3C(F)(F)F)[nH]c12 [Compound 464]
Observed value: ≤ 100 nM

[Q] So what does the record say about IC50 for Fc1cc(C2CC23COC3)cc2nc(-c3nncn3-c3cnccc3C(F)(F)F)[nH]c12 (centres unmarked) [Compound 413] ?
[A] ≤ 100 nM

[Q] So what does the record say about IC50 for FC(F)(F)c1ccc2[nH]c(-c3nnc(COC4COC4)n3-c3cccc(Cl)c3Cl)nc2c1 [Example 124] ?
[A] ≤ 100 nM

[Q] So what does the record say about IC50 for CC1(c2cc(F)c3[nH]c(-c4nncn4-c4cnccc4C(F)(F)F)nc3c2)COC1 [Compound 290] ?
[A] ≤ 100 nM

[Q] So what does the record say about IC50 for CC(F)(F)c1ccncc1-n1cnnc1-c1nc2cc(C(F)(F)F)ccc2[nH]1 [Compound 260] ?
[A] ≤ 100 nM

[Q] So what does the record say about IC50 for [2H]c1nnc(-c2nc3cc(C4([2H])CC4)cc(F)c3[nH]2)n1-c1cnccc1C(F)(F)F [Compound 359] ?
[A] ≤ 100 nM

* * *

Measured on: SARM1 (50-724) (Homo sapiens)
Sequence (Q6SZW1 50-724): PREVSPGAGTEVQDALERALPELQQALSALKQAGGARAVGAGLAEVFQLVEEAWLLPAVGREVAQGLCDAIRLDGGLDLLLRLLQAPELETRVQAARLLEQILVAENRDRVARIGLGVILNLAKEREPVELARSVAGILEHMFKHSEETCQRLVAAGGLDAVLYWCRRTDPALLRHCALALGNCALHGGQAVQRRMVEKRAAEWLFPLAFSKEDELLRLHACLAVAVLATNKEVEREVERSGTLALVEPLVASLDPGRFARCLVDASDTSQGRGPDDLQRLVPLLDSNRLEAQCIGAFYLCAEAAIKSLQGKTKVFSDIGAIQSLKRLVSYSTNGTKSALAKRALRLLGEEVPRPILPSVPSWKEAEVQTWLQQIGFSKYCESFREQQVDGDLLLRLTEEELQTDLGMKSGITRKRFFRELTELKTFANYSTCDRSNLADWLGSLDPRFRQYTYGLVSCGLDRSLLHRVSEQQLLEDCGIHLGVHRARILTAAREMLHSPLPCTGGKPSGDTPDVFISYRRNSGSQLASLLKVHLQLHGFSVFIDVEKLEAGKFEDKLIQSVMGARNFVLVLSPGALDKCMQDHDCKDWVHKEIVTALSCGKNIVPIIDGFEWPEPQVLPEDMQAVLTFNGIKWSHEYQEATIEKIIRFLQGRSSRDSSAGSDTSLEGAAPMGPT
Metric: IC50

Some compounds with recorded IC50:
Compound: FC(F)(F)c1ccc2[nH]c(-c3nncn3-c3cnccc3C(F)(F)F)c(-c3ncccn3)c2c1
IC50: ≤ 0.1 µM
//
Compound: CCC(c1ccc2[nH]c(-c3nncn3-c3ccncc3OC(F)(F)F)nc2c1)C(F)F (stereo not drawn)
IC50: ≤ 0.1 µM
//
Compound: FC(F)(F)O[C@@H]1CCOC[C@H]1n1cnnc1-c1nc2cc(C(F)(F)F)ccc2[nH]1 (racemic)
IC50: ≤ 0.1 µM
//
Compound: NC(=O)Cc1nnc(-c2nc3cc(C(F)(F)F)ccc3[nH]2)n1-c1cccc(Cl)c1Cl
IC50: ≤ 0.1 µM
//
Compound: N#CC1(c2ccc3[nH]c(-c4nncn4-c4ccc(F)c(F)c4Cl)nc3c2)CC1
IC50: ≤ 0.1 µM
//
Compound: Nc1nnc(-c2nc3cc(C(F)(F)F)cc(F)c3[nH]2)n1-c1cnccc1C(F)(F)F
IC50: ≤ 0.1 µM
//
Compound: FC(F)(F)c1ccc2[nH]c(-c3nnc(OC4COC4)n3-c3cccc(Cl)c3Cl)nc2c1
IC50: 0.1 to 0.5 µM
//
Compound: CC1(c2ccc3[nH]c(-c4nncn4-c4cccc(F)c4Cl)nc3c2)CC(O)C1 (stereo not drawn)
IC50: ≤ 0.1 µM
//
Compound: COc1ncc(Cl)c(-n2cnnc2-c2nc3cc(C(F)(F)F)ccc3[nH]2)n1
IC50: > 1 µM
//
Compound: CS(=O)(=O)Cc1c(-c2nncn2-c2cnccc2C(F)(F)F)[nH]c2ccc(C(F)(F)F)cc12
IC50: ≤ 0.1 µM

[Q] So what does the record say about IC50 for `O=S1(=O)Cc2ccc3[nH]c(-c4nncn4-c4cccc(F)c4Cl)nc3c2C1` ?
[A] > 1 µM

[Q] So what does the record say about IC50 for `Cc1ccc2[nH]c(-n3c(C4CCCC4)n[nH]c3=O)nc2c1` ?
[A] > 1 µM

[Q] So what does the record say about IC50 for `CS(=O)(=O)CCc1cc(-n2cnnc2-c2nc3cc(C(F)(F)F)ccc3[nH]2)c(OC(F)(F)F)cn1` ?
[A] ≤ 0.1 µM

[Q] So what does the record say about IC50 for `FC(F)(F)c1ccc2[nH]c(-c3nncn3-c3cccc(Cl)c3Br)nc2c1` ?
[A] ≤ 0.1 µM

[Q] So what does the record say about IC50 for Clc1cccc(-n2cnnc2-c2nc3cc(C4CCOC4)ccc3[nH]2)c1Cl (stereo not drawn) ?
[A] ≤ 0.1 µM

[Q] So what does the record say about IC50 for `Cc1ccc2[nH]c(C3=C(C4CCCC4)COC3=O)nc2c1` ?
[A] > 1 µM

[Q] So what does the record say about IC50 for `FC(F)(F)Oc1cnc(CC2COC2)cc1-n1cnnc1-c1nc2cc(C(F)(F)F)ccc2[nH]1` ?
[A] ≤ 0.1 µM
